- ASSAYED SYSTEM: FLT3 (Homo sapiens)
- Construct: made in house
- Sequence (P36888 27-993): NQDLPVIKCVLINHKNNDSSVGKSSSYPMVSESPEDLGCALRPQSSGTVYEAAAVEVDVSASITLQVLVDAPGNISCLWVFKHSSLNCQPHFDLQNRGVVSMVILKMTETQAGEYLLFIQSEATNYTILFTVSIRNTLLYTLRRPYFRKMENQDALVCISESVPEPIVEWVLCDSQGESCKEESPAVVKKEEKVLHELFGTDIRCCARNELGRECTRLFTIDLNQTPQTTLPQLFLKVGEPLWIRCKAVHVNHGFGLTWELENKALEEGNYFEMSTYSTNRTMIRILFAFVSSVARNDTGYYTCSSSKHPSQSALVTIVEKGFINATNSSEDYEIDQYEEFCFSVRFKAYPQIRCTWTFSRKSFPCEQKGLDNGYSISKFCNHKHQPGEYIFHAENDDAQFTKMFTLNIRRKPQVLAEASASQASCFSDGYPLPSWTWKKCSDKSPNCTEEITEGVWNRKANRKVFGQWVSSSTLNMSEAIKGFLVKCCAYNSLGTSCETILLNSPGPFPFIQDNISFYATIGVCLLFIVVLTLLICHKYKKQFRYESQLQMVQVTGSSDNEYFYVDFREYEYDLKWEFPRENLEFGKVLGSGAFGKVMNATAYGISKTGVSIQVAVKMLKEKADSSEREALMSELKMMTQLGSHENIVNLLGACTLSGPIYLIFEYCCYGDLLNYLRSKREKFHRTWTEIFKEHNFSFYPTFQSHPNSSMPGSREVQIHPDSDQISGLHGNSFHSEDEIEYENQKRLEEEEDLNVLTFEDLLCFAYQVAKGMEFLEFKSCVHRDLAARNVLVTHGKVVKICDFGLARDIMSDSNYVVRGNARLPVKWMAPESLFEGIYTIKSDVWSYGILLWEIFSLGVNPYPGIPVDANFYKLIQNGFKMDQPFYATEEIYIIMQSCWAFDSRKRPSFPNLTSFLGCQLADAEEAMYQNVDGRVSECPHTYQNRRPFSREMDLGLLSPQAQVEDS
- PROTOCOL NOTES: Competition binding assay, FLT3 Kd
- STATED CONDITIONS: competition binding
pKd: −log10 of the molar value.
REPORTED METRIC: pKd

O[C@@H]1CCCC[C@H]1Nc1nc2ccc(Cc3cnc4[nH]c5ccccc5n34)cc2s1 [Example 205] | 6.00 to 6.70
CC(=O)c1ccn2c(Cc3ccc4nc(N[C@@H]5CCCC[C@H]5O)sc4c3)cnc2c1 [Example 200] | < 5.30
CNC(=O)c1ccc2ncc(Cc3ccc4nc(N[C@@H]5CCCC[C@H]5O)sc4c3)n2n1 [Example 143] | 5.30 to 6.00

Input line: Determine its reported pKd: O[C@@H]1CCCC[C@H]1Nc1nc2ccc(Cc3cnc4ccc(N5CCOCC5)nn34)cc2s1 [Example 155]
Output line: ≥ 6.70

Input line: Identify the reported pKd for the following entry. Cn1nnc(-c2ccc3c(c2)ncn3Cc2ccc3nc(N[C@@H]4CCC[C@@H](O)[C@H]4O)sc3c2)n1 [Example 236]
Output line: 6.00 to 6.70

Input line: For O[C@@H]1CCCC[C@H]1Nc1nc2ccc(Cn3cnc4cncnc43)cc2o1 [Example 118] , write its pKd.
Output line: 5.30 to 6.00

Input line: Read the entry Fc1cnc2c(c1)ncn2Cc1ccc2nc(N[C@@H]3CCCC[C@H]3Cl)sc2c1 [Example 198] and write its reported pKd.
Output line: 5.30 to 6.00

Input line: Annotate the compound O[C@@H]1CCCC[C@H]1Nc1nc2ccc(Cn3cnc4cc(Cl)c(Cl)nc43)cc2s1 [Example 137] with its measured pKd.
Output line: 6.00 to 6.70

Input line: Specify measured pKd for N#Cc1ccc2c(c1)ncn2Cc1ccc2nc(N[C@@H]3CCCC[C@H]3O)sc2c1 [Example 108] .
Output line: < 5.30

Input line: Note down pKd recorded for N#Cc1ccn2c(Cc3ccc4nc(N[C@@H]5CCCC[C@H]5O)sc4c3)cnc2c1 [Example 117]
Output line: < 5.30

Input line: Identify the reported pKd for the following entry. Cn1cc(-c2ccc3c(c2)ncn3Cc2ccc3nc(N[C@@H]4CCCC[C@H]4O)sc3c2)c(C(F)(F)F)n1 [Example 185]
Output line: ≥ 6.70

Input line: State its pKd: C=Cc1ccc2c(c1)ncn2Cc1ccc2nc(N[C@@H]3CCC[C@@H](O)[C@H]3O)sc2c1 [Example 232]
Output line: ≥ 6.70

Input line: Using the record for O[C@H]1CC[C@H](Nc2nc3ccc(Cn4cnc5cc(F)cnc54)cc3s2)CC1 [Example 163] , state its measured pKd.
Output line: < 5.30

Input line: Give me measured pKd, please, for this compound: O[C@H]1CCCCC1Nc1nc2ccc(Cn3cnc4cc(F)cnc43)cc2s1 (stereo in doubt) [Example 213]
Output line: 6.00 to 6.70

Input line: Supply measured pKd of OC[C@H]1CCCC[C@H]1Nc1nc2ccc(Cn3cnc4cc(Br)cnc43)cc2s1 [Example 136] in your reply.
Output line: 5.30 to 6.00

Input line: Find the measured pKd of O[C@@H]1CCCC[C@H]1Nc1nc2ccc(Cc3cnc4cnccn34)cc2s1 [Example 125] and report it.
Output line: 5.30 to 6.00

---

We begin with a simple list: items and their reported Kd.
- ASSAYED SYSTEM: KIT (Homo sapiens, UniProt P10721)
- Construct: made in house
- Sequence (P10721 26-976): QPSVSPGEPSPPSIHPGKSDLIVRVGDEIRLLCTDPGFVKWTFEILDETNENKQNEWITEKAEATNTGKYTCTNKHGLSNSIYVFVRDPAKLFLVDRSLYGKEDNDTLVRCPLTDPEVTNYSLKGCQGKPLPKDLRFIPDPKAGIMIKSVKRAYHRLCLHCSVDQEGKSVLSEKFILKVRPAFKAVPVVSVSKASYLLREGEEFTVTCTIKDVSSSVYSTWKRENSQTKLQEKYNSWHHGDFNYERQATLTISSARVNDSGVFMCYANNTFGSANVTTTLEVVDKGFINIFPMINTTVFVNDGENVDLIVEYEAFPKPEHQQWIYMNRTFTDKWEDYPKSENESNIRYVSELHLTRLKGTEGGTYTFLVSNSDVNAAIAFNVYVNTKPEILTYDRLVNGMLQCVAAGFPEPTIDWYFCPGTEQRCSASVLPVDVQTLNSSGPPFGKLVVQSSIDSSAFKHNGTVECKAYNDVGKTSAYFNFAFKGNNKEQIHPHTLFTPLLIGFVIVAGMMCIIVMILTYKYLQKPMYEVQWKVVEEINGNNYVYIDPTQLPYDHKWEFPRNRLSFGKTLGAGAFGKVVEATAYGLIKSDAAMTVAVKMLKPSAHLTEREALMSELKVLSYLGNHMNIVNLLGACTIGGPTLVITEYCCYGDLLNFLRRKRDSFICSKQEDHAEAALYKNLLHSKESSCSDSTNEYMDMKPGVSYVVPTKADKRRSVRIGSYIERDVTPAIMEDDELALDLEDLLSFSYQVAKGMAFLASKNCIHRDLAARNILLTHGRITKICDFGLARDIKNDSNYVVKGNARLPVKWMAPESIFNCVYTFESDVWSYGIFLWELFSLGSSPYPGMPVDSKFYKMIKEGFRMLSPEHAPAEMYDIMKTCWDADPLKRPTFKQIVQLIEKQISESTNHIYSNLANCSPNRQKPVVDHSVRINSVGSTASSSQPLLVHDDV
- PROTOCOL NOTES: Competition binding assay, KIT Kd

Recorded Kd, per entry:
C#Cc1cnc2c(c1)ncn2Cc1ccc2nc(N[C@@H]3CCCC[C@H]3O)sc2c1 [Example 96] | ≤ 0.1 µM
O[C@@H]1CCCC[C@H]1Nc1nc2ccc(Cn3cnc4cc(Br)ccc43)cc2s1 [Example 100] | 0.1 to 0.5 µM
CN(C)C(=O)c1cnc2c(c1)ncn2Cc1ccc2nc(N[C@@H]3CCCC[C@H]3O)sc2c1 [Example 92] | ≤ 0.1 µM
Cn1cc(-c2cnc3c(c2)ncn3Cc2ccc3nc(N[C@@H]4CCCC[C@H]4O)sc3c2)cn1 [Example 39] | ≤ 0.1 µM
COc1cc2ncn(Cc3ccc4nc(Nc5ccccc5)sc4c3)c2cc1OC [Example 22] | 0.1 to 0.5 µM

Input line: Kindly indicate its recorded Kd. Item: O[C@@H]1Cc2ccccc2[C@H]1Nc1nc2ccc(Cn3cnc4cncnc43)cc2s1 [Example 95]
Output line: 0.5 to 2 µM

Input line: Recall and state the measured Kd for O[C@@H]1CCCC[C@H]1Nc1nc2ccc(Cn3cnc4cc(C5CC5)cnc43)cc2s1 [Example 45] .
Output line: ≤ 0.1 µM

Input line: Return the recorded Kd value; entry: OCC1(CNc2nc3ccc(Cn4cnc5cccnc54)cc3s2)CCCCC1 [Example 76]
Output line: ≤ 0.1 µM
